The reported numbers originate from the supplement of paper PMC9170038.

System: MS2 coat protein
Test: apparent KD of MS2 coat protein; designed switch direction (-1 OFF switch, 1 ON switch): -1; higher = weaker reporter binding
Details: input ligand: FMN 200 uM
Label rule, in plain words: apparent KD of MS2 coat protein of 80 nM and up is label 1, under 80 nM is label 0.

input_sequence: GGAAGGCGAGGAUAUACAAUAAAGAAAGCGAAAGACAUGAAACAUGAGGAUCACCCAUGUAGAAGGCGCGGAGA [AK-MS2ROC-r4-exclusion2-9] (Eterna round: R97, puzzle: Exclusion 2)
cat: label 0
//
input_sequence: CAGCUGAAAGUCAGGAUAUCUAGAGCGAUAGCUCUAGAGAAGGGACAUGAGGAUCACCCAUGUGAUCACAGCUG [BmEx4/4-A4] (Eterna round: R97, puzzle: Brourd's mod of Exclusion 4)
cat: label 1
//
input_sequence: GCUAGACAUGUCAGGAUAUGCUGUACCUUGGUACAGCAGAAGGGACAUGAGGAUCACCCAUGUGCCUAUCUAGC [JL-BMX4-4.05] (Eterna round: R97, puzzle: Brourd's mod of Exclusion 4)
cat: label 1
//
input_sequence: ACUUACUGAGGAUAUACAUAGAUUUACAUGAGGAUCACCCAUGUUCCUCUAAGUAUAUAUGUAGAAGGCAGAAGAU [Mat - Exclusion 5 - JL Mod - D39] (Eterna round: R97, puzzle: Exclusion 5)
cat: label 1
//
input_sequence: AGUACUAACACGGGAGUGUUAGUACAAUAAGCUUGUGAAACAUGAGGAUCACCCAUGUCCUCAUAAGCUCGUCUUAU [salish99_TOv2_r3_060] (Eterna round: R96, puzzle: Sensor v3, turn-off variant 2)
cat: label 0
//
input_sequence: AAUAACAAGUAGAUCCUAAACAUGAGGAUCACCCAUGUGCUCGUCUUGUAAAGUACUAUCACGAAAGUGAUAGUACA (Eterna round: R97, puzzle: Sensor, turn-off variant 1)
cat: label 1
//
input_sequence: AAGACAAAUGUAGGAUAUGCGUGGCGAAGCUAUGCAGAAGGACAUGAGGAUCACCCAUGUCUAAGCGUCUGCGUACAGAUGCUA [JL eng1 1.35 mod 8] (Eterna round: R96, puzzle: Exclusion NG 1)
cat: label 0
//
input_sequence: AGUACUGACACGUCGGUGUUAGUACAAUAAGCUUGUGAAACAUGAGGAUCACCCAUGUCCUCAUAAGCUCGUCUUAU [salish99_TOv2_r3_081] (Eterna round: R96, puzzle: Sensor v3, turn-off variant 2)
cat: label 0

###

Test system: MS2 coat protein
Assay: apparent KD of MS2 coat protein; designed switch direction (-1 OFF switch, 1 ON switch): -1; higher = weaker reporter binding
Conditions: Eterna round: R95; input ligand: microRNA oligo, concentration not stated
Binned apparent KD of MS2 coat protein; ranges: A = under 20 nM, B = from 20 nM up to 30 nM, C = 30 nM and over

input_sequence: CCAAGCUGUGUGAGGAUAUGCUGAACCUUGGUUCAGCAGAAGGCACAUGAGGAUCACCCAUGUGAAGAGCUUGG [Mat - Exclusion 4 - JL Mod - D96] (puzzle: Brourd's mod of Exclusion 4)
test_target: MS2 coat protein
cat: A

input_sequence: CCCUCACAUGAGGAUCACCCAUGUCAGGAUAUUCGACGGUAAAUUGGCCGUCUUAAAGGAAGAAGGGACGUAAC [Lesoorxe] (puzzle: Exclusion 1)
test_target: MS2 coat protein
cat: A

input_sequence: CUUAAGGCAGGAUAUGCUUUUUGUGACAUGAGGAUCACCCAUGUGAUGCAGUUUGGGUGUGCAGAAGGGCCUGAGU [JR_E5_Sub033] (puzzle: Exclusion 5)
test_target: MS2 coat protein
cat: C

input_sequence: UAAAGGCUAGGAUAUCGCACCUUCGACAUGAGGAUCACCCAUGUAUGUCGAUGGUAAAAUCGAGAAGGAGCGAGAA [Artiedqu] (puzzle: Exclusion 5)
test_target: MS2 coat protein
cat: B

input_sequence: CCUCGACAUGAGGAUCACCCAUGUCAGGAUAUUGUGUAUCGGGUUUUUUACCGAAAGGCGAGAAGGGAUGUGUG [LRO-Excl1-11] (puzzle: Exclusion 1)
test_target: MS2 coat protein
cat: A

input_sequence: UGAAAGCUAGGAUAUACAUGAGGAUCACCCAUGUACCGGCUUGGCCCUGGUCCAAAGUGUAGAAGGAGCACGCC [Reedcedima] (puzzle: Exclusion 3)
test_target: MS2 coat protein
cat: B

input_sequence: CUGGUCCGAGGAUAUAUGAUGUGAAACAUGAGGAUCACCCAUGUAAUAUUAUGGAUGGAAAUAGAAGGCGGACUAG [Mat - Exclusion 5 - JL mod - D36] (puzzle: Exclusion 5)
test_target: MS2 coat protein
cat: C

input_sequence: UAAAUGUGAGGAUAUCAGGUGUGCUAGAAUACUGGUACAUCUGAGAAGGCACAUGAGGAUCACCCAUGUUCCUU [Mat - Exclusion 4 - Mod of JL - D53] (puzzle: Exclusion 4)
test_target: MS2 coat protein
cat: A

input_sequence: GAGAUGUGAGGAUAUCUAGACCGCGGCAGAGCUGCGGUCCGAGAGAAGGCACAUGAGGAUCACCCAUGUGAUGA [Beriesan] (puzzle: Exclusion 4)
test_target: MS2 coat protein
cat: C

input_sequence: UCCUUACAUGAGGAUCACCCAUGUCAGGAUAUCUCCUCACUGCGCUUGCGCAGUGGAUAGAGAAGGGACGGGCU [JL ViennaUCT Aner mod 9] (puzzle: Exclusion 1)
test_target: MS2 coat protein
cat: B

###

Tested on: K4 kissing-loop RNA reporter
Test: apparent KD of K4 kissing-loop reporter; higher = weaker reporter binding
Settings: Eterna round: R107; input ligand: none
Label rule, in plain words: apparent KD of K4 kissing-loop reporter of 100 nM and up is criterion met, under 100 nM is criterion not met.

input_sequence: AGAGUCACAUAAGGAUAUCCCUUGACGGGAACCAAGUGAUGUUUGGUUAGACGACCUCUUAUCACGGGAGAAGGUAUAUUUGUAU [theeternabot_sameState_KL_FMN_B_27]
cat: criterion met
//
input_sequence: GCCGUACGCAUGGAUACCAGCAAGUAUAUAUGCUAGUGAUGUUAGCGCUAUGCGAUGCGGUGCCCUUGGCAGCCAUGCGUACGGC
cat: criterion met
//
input_sequence: CGCAAGCAGCCAGUGAUGUUGGCCGCCUUGCGAGGACCGGUACGGCCGCCACUCGAAGGCGGCUACUGGUAAACCGCCUAACGGA [Onzaenla]
cat: criterion not met
//
input_sequence: GUGCGGUGGAGGCUACCGCUACUCUGAGAAGGAGCGCAGAAGACUGCAGGUAGGUCGCUUAGAGCUUGCAGUGAUGUUGCAAGUU [KL-SSArg-A18]
cat: criterion met
//
input_sequence: CCGCUGCCCUCAGGAUAUUAAGUAUUAGUGAUGUUAGUAAACCGAUGGCGAAAGCCAUCGGUAUGUUGAGAAGGGAGGGUAGCGG [whbob_SS_FMNB__2th199]
cat: criterion met

###

Overview of recorded apparent KD of K4 kissing-loop reporter for various sequences
System: K4 kissing-loop RNA reporter
Assay: apparent KD of K4 kissing-loop reporter; higher = weaker reporter binding
Settings: Eterna round: R107; input ligand: none

input_sequence: AGUGGACGUGUCCGGAGUGAUGUUCCGGAUACCAGACACGAAAGUGUCCCUUGGCAGCCGGAGUAAAGUUCCGGCGUUCACUAAA [#26 K4 Theophylline A Exclusion]
test_target: K4 kissing-loop RNA reporter
unit_label: nM
apparent KD of K4 kissing-loop reporter: 111

input_sequence: CCGAGCCUGACGUAAGUCAGGCUCUGCGAGCGAGGACCGGUACGGCCGCCACUCGGUGCAGUGAUGUUGCAUGGCCGCAAGGCCG [#2 Exclusion - Tryptophan A Attempt #23 (HarryS)]
test_target: K4 kissing-loop RNA reporter
unit_label: nM
apparent KD of K4 kissing-loop reporter: 235

input_sequence: UGGACCAAGGAGUGAUGUUCCAUAUGUGAUACCAGCCACGAAAGUGGCCCUUGGCAGCACUGCCAGGACGAAAACGUCCGGUCCU [#SwitchBubble 13 #StaticStem #K4Early]
test_target: K4 kissing-loop RNA reporter
unit_label: nM
apparent KD of K4 kissing-loop reporter: 503

input_sequence: UUGGCAGUGAUGUUGCCAGAGCUCACCGAAGGAGCGCGUGAAAACGCAGGUAGGUCGCGGUAGCGGAGUGAUUCUCCGCGAGGGC [Same State Arginine A GF 21]
test_target: K4 kissing-loop RNA reporter
unit_label: nM
apparent KD of K4 kissing-loop reporter: 77.2

input_sequence: UGAUACCAGACGGCCGCCACUCCUGCAGUCAAAGACUGCUAAGGAAUAUUCGUCCAGUGAUGUUGGAGGACCGGGUCUGGUAUCU [TrypBX 12 #SwitchBubble #Palindromic #StaticStem]
test_target: K4 kissing-loop RNA reporter;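 further: bound reporter read as fluorescence of individual clusters on recovered sequencing chips by microscopy, with normalized cluster intensities fitted with a binding model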
unit_label: nM
apparent KD of K4 kissing-loop reporter: 1380
